system: SF-268 CNS; test: NCI-60 one-dose screen, 48 h (100 = growth as untreated, 0 = no growth, -100 = all killed); conditions: 10 µM unless noted
About 83,000 compounds went through this panel and 20% of them were active in at least one assay; those are over-represented in the sample as a whole.
# growth values compiled below
Value expressed in %; do not type the unit.

Look over these answered cases.
COc1cc2c(cc1C)NC(=O)/C2=C\c1c[nH]c2ccccc12	81.6
CCCCCCCCCCCCCCC(C(=O)OCC)C(=O)OCC	110
O=c1cc(-c2ccc3c(c2)OCCO3)oc2cc(Cl)ccc12	21.1
Fc1ccc2nc(-c3ccc(-c4noc(-c5ccc(Cl)cc5)n4)cc3)[nH]c2c1	105
Fc1cc(-c2nnc3sc(-c4ccc(Cl)cc4)nn23)c(Cl)cc1Cl	98

Now look at this one.
State its growth for this molecule: CCn1c(CN2CCN(Cc3ccccc3)CC2)nc2cc(NC(=O)c3cccs3)ccc21
-88.3

###

system: NCI-H460 lung; assay: NCI-60 one-dose screen, 48 h (100 = growth as untreated, 0 = no growth, -100 = all killed); settings: 10 µM unless noted
About 83,000 compounds went through this panel and 20% of them were active in at least one assay; those are over-represented in the sample as a whole.
# growth values compiled below
Value expressed in %; do not type the unit.

Look over these answered cases.
CCOc1ccc([C@@H]2[C@@H](Oc3ccccc3)C(=O)N2c2cc(OC)c(OC)c(OC)c2)cc1	7.32
CCCCCCCCCCC(C(O)c1ccccc1)N1CCCCC1 (centres undefined)	-74.5
COC(=O)CNS(=O)(=O)c1ccc2c(c1)Cc1cc(S(=O)(=O)NCC(=O)OC)ccc1-2	105
Clc1ccc(Nc2ncnc3c2sc2ncccc23)c(Cl)c1	10.1
COc1cc(C2=NOC(c3cc(OC)c(OC)c(OC)c3)C2)ccc1OCCCCOc1cc2c(cc1OC)C(=O)N1CCC[C@H]1C=N2 (some centres undefined)	-29.6

Report its growth with NCI-H460 lung as the test system: O=C(O)Cn1ccc2ccccc21
103

Report its growth with NCI-H460 lung as the test system: CN1CCN(c2ccc(N3Cc4ccccc4OC4=C3C(=O)c3c(O)ccc(O)c3C4=O)cn2)CC1
-22.4

Report its growth with NCI-H460 lung as the test system: Cc1ccc(NC(=O)c2nc(S(C)=O)oc2-c2ccc(F)cc2)cc1Nc1nccc(-c2cccnc2)n1 (centres undefined)
61.5

Report its growth with NCI-H460 lung as the test system: C=C(CN1CC=CCC1)[C@@H]1CC[C@]2(C(=O)OC)CC[C@]3(C)[C@H](CC[C@@H]4[C@@]5(C)CC[C@H](OC(C)=O)C(C)(C)[C@@H]5CC[C@]43C)[C@@H]12
97.8

###

System: A498 renal
Assay: NCI-60 one-dose screen, 48 h (100 = growth as untreated, 0 = no growth, -100 = all killed)
Conditions: 10 µM unless noted
Method: Growth inhibition of the A498 human tumor cell line is measured as a screen for anti-cancer activity. Cells are grown in 96 well plates and exposed to the test compound for 48 hours. Compounds are tested at a single concentration, which is 10^-5 M for most compounds. The reported endpoint is percent growth (GI% or GIPRCNT), where numbers from 0 - 100% represent growth inhibition, and numbers from -100% - 0 represent cell death. For example, a value of 40 represents 60% growth inhibition. […]
This is part of a sample that, as a whole, favours compounds with a hit. Of some 83,000 tested, about 20% had one in any assay.
Classify: criterion met when growth is strictly less than 90%; criterion not met when growth is not.

O=c1[nH]c2ccccc2n2cc3cccnc3c12	criterion met
CCOc1c(C#N)c2c(N)ncnc2n1C1OC(CO)C(O)C1O (stereo unspecified)	criterion met
COC(=O)c1ccc(NC(N)=NCCC(C)(C)c2ccc(C(F)(F)F)cc2)nc1	criterion met
CC(C)NC(=O)OCC#CCOC(=O)NC(C)C	criterion not met

Next, consider the following compound.
Quick check: growth of O=C1CC2(O)CSc3nc(=O)cc(n32)N1 (stereo unspecified) under 90%?
criterion not met
